Listed compounds paired with reported t1/2
# Test system: Liver microsomes
# Assay Text: Half life in human liver microsomes by in vitro metabolic stability assay
# Format: ADME, Microsome
# Settings: microsomes
Observed Property: t1/2

• CC(N(C)C)C1(c2ccc3ccccc3c2)CCCCC1 (single isomer, unassigned; form 1) = 0.533 h
• CNC(C)C1(c2ccc(Cl)c(Cl)c2)CCCCC1 (stereo in doubt; 24) = 0.883 h
• CC(N)C1(c2ccc3ccccc3c2)CCCCC1 (single isomer, unassigned) = 2.5 h
• CNC(C)C1(c2ccc(Cl)c(Cl)c2)CCCCC1 (single isomer, unassigned) = 1.18 h
• CNC(C)C1(c2ccc3ccccc3c2)CCCCC1 (single isomer, unassigned; enantiomer 2) = 1.68 h
• CC(N(C)C)C1(c2ccc(Cl)c(Cl)c2)CCCCC1 (single isomer, unassigned; enantiomer 1) = 0.467 h
• CC(N)C1(c2ccc3ccccc3c2)CCCCC1 (single isomer, unassigned; enantiomer 2) = 2.73 h
• CNC(C)C1(c2ccc(Cl)c(Cl)c2)CCCCC1 (racemic) = 4.68 h
